Experiment: U-118MG Cancer Cell Toxicity qHTS against the NCATS CANVASS Library (AID 1347351)
Conditions: U-118MG viability, CellTiter-Glo luminescence, 72 h; series mostly up to 38.3 µM
Results filed as inconclusive are left out. Active and inactive are the calls of the source. Calls come from the whole dose curve; as a rule, active = well fitted cell-killing curve with a large enough effect; inconclusive = small, poorly fitted or top-dose-only effect; inactive = flat fitted curve, though single readings scatter.
Possible outcomes: active, inactive

Molecule | Class
C=CC(C)(C)C(=O)[C@@H](C)[C@@H]1CC[C@@](C)(C=C)O1 | inactive
CCCc1c2c([nH]c(=O)c1C)C(=O)c1[nH]c(=O)c(C)c(CCC)c1C2=O | inactive
C=C1C[C@H]2O[C@@H]3[C@@H]4[C@H](CC[C@@](C)(O)[C@@H]42)[C@H](C)COC3(C)[C@@H](OC(=O)CCCCCCC)C[C@H]1O (some centres not stated) | inactive
C[C@@]12CCC[C@@](C)(C(=O)O)[C@H]1CC[C@@]13C[C@@H](CC[C@H]12)[C@](C)(O)C3 | inactive
CC(=O)N[C@H](C)c1nc(/C=C/C=C/C(=O)CC2CC(=O)CC[C@]2(C)O)cs1 (some centres not stated) | inactive
O=Cc1ccc2n1C[C@]1(OC2)O[C@H](CO)[C@@H](O)[C@@H]1O | inactive
CC1(C)CC[C@]2(CO)CC[C@]3(C)C(=CCC4[C@@]5(C)CC[C@H](O)C(C)(C)C5CC[C@]43C)C2C1 (some centres not stated) | inactive
C=C[C@](Cl)(CBr)CCC=C(C)C | inactive
C/C=C(/C)c1c(Cl)c(OC)c(C)c2c1Oc1c(Cl)c(O)c(Cl)c(C)c1C(=O)O2 | inactive
CC(C)=CCC[C@]12c3cc4c(cc3CC[C@@]1(C)[C@H](C)CC[C@@H]2O)[nH]c1ccccc14 | inactive
CC(CCC[C@]1(C)C(=O)C=C[C@@]23C[C@]4(C)O[C@@H](C[C@@H]4[C@H]2O)C31)C(=O)O (some centres not stated) | inactive
COc1ccc([C@@H]2c3cc4c(cc3C(=O)C(C)C2C)OCO4)cc1OC (some centres not stated) | inactive
C[C@H]1CCC2(OC1)O[C@H]1C[C@H]3[C@@H]4CC(=O)[C@]5(O)C[C@H](O)CC[C@@]5(C)[C@H]4CC[C@@]3(C)[C@H]1[C@H]2C (some centres not stated) | inactive
C/C=C(/C)c1cc(O)c(C)c2c1Oc1cc(O)cc(C)c1C(=O)O2 | inactive
CC[C@@H](c1cc(OC)c(OC)cc1OC)[C@H](C)[C@@H](/C(C)=C/c1cc(OC)c(OC)cc1OC)c1cc(OC)c(OC)cc1OC | inactive
CC(=O)O[C@H]1c2ccccc2-c2c3c(cc4c2[C@@H]1N(C(C)=O)CC4)OCO3 | inactive
C=CC(CCCCC)C1C(=O)NC(=O)C1C(=O)C1C(/C=C/C)C=CC2CC(C(=O)O)CC(C)C21 (configuration not stated) | active
